Assignment: determine reported TGI for the given compounds.
# Test system: HL-60(TB) leukemia
# Assay info: NCI tumour cell line growth inhibition, 48 h
Expressed in µM, but write only the number.

Qu. Lab note: record TGI of CC(=O)O[C@H]1C(=O)[C@@]2(C)C([C@H](OC(=O)c3ccccc3)[C@]3(O)C[C@H](OC(=O)[C@H](O)[C@@H](NC(=O)c4ccccc4)c4ccccc4)C(C)=C1C3(C)C)[C@]1(OC(C)=O)CO[C@@H]1C[C@@H]2O (some centres not stated) tested on HL-60(TB) leukemia.
Ans. 0.0209

Qu. Lab note: record TGI of N#CC1c2ccccc2C=CN1C(=O)CCCl (configuration not stated) tested on HL-60(TB) leukemia.
Ans. 40.8

Qu. Lab note: record TGI of `CCN(CC)CCCNc1ccc(C)c2sc3ccccc3c(=O)c12` tested on HL-60(TB) leukemia.
Ans. 3.63

Qu. Lab note: record TGI of `O=c1oc2ccc3ccccc3c2cc1-c1cn2ccsc2n1` tested on HL-60(TB) leukemia.
Ans. 51.7

Qu. Lab note: record TGI of `O=C1/C(=C\c2ccccc2)CN(C(=O)CCN2CCCCC2)C/C1=C/c1ccccc1` tested on HL-60(TB) leukemia.
Ans. 1.17

Qu. Lab note: record TGI of `CCN=c1sc2c(n1NC(=O)c1cc3ccc1CCc1ccc(cc1)CC3)C(=O)c1ccccc1C2=O` tested on HL-60(TB) leukemia.
Ans. 2.3

Qu. Lab note: record TGI of `O=[N+]([O-])c1ccc(Cl)c2c([N+](=O)[O-])cccc12` tested on HL-60(TB) leukemia.
Ans. 7.16

Qu. Lab note: record TGI of `C[C@]12CC[C@H]3[C@@H](CCC4=CC(=O)CC[C@@]43C)[C@@H]1CC[C@@H]2c1csc(N)n1` tested on HL-60(TB) leukemia.
Ans. 8.18

Qu. Lab note: record TGI of Cc1c(C)n(-c2ccccc2)c2nc(S(C)=O)nc(S(C)=O)c12 (configuration not stated) tested on HL-60(TB) leukemia.
Ans. 3.39

Qu. Lab note: record TGI of `COc1cc2c(N3CCN(C(=O)Nc4ccc(OC(C)C)cc4)CC3)ncnc2cc1OCCCN1CCCCC1` tested on HL-60(TB) leukemia.
Ans. 36.1

Qu. Lab note: record TGI of CCN1C(=S)N(CC)C2C1NC(=S)N2/N=C/C=C/c1ccccc1OC (configuration not stated) tested on HL-60(TB) leukemia.
Ans. 0.597

Qu. Lab note: record TGI of `NS(=O)(=O)c1nnc(NC(=O)N(c2ccccc2)c2ccccc2)s1` tested on HL-60(TB) leukemia.
Ans. 48.2

Qu. Lab note: record TGI of `CCCCCOc1ccc(/C=N/Nc2cc(C)nc3ccc(Cl)cc23)cc1` tested on HL-60(TB) leukemia.
Ans. 3.36

Qu. Lab note: record TGI of `O=C(NCc1ccccc1)c1cc2ccccc2oc1=Nc1cccc(C(F)(F)F)c1` tested on HL-60(TB) leukemia.
Ans. 49.9

Qu. Lab note: record TGI of `OC1(c2ccc(Cl)c(C(F)(F)F)c2)CCN(CCCC(c2ccc(F)cc2)c2ccc(F)cc2)CC1` tested on HL-60(TB) leukemia.
Ans. 2.02

Qu. Lab note: record TGI of `O=c1c2ccccc2sc2c(CO)ccc(NCCN3CCCCC3)c12` tested on HL-60(TB) leukemia.
Ans. 11

Qu. Lab note: record TGI of `CNC(=O)c1ncccc1Nc1nc(Nc2cc3c(cc2OC)CCCN3C(=O)CN(C)C)nc2[nH]ccc12` tested on HL-60(TB) leukemia.
Ans. 0.803

Qu. Lab note: record TGI of `N#Cc1nc2c(S(=O)(=O)c3ccc(Cl)cc3)c(N)n(Nc3cccc(Cl)c3)c2nc1C#N` tested on HL-60(TB) leukemia.
Ans. 0.0871

###

# Tested on: DU-145 prostate
# Assay info: NCI tumour cell line growth inhibition, 48 h; in the data active = GI50 below about 0.43 µM; inactive = the rest
Please answer using one outcome listed in TRUE = active, FALSE = inactive

Qu. Give the logged outcome of this assay for the following molecule: `COc1ccc(C(=O)c2cc(OC)c(OC)c(OC)c2OC)cc1O`
Ans. FALSE

Qu. Give the logged outcome of this assay for the following molecule: `CN[C@@H](C)C(=O)N[C@H]1CN(S(=O)(=O)c2cccc(S(=O)(=O)N3CC[C@H]4CC[C@@H](C(=O)NC(c5ccccc5)c5ccccc5)N4C(=O)[C@@H](NC(=O)[C@H](C)NC)C3)c2)CC[C@H]2CC[C@@H](C(=O)NC(c3ccccc3)c3ccccc3)N2C1=O`
Ans. FALSE

Qu. Give the logged outcome of this assay for the following molecule: `Cc1cccc(NC(=O)c2sc3nc4c(cc3c2N)C(=O)CCC4)c1`
Ans. TRUE

Qu. Give the logged outcome of this assay for the following molecule: `CNC(=O)c1ncccc1Nc1nc(Nc2cc3c(cc2OC)CCCN3C(=O)CN(C)C)nc2[nH]ccc12`
Ans. FALSE

###

# System: NCI-H23 lung
# Assay info: NCI tumour cell line growth inhibition, 48 h
Measured property: GI50

Qu. Return reported GI50. Input compound: CCN(CC)Cc1cc(Nc2nc(NC3CCC(N(C)C)CC3)c3ccccc3n2)ccc1OC (stereo not given)
Ans. 6.9 µM

Qu. Return reported GI50. Input compound: `CN[C@@H](C)C(=O)N[C@H]1CN(S(=O)(=O)c2cccc(S(=O)(=O)N3CC[C@H]4CC[C@@H](C(=O)NC(c5ccccc5)c5ccccc5)N4C(=O)[C@@H](NC(=O)[C@H](C)NC)C3)c2)CC[C@H]2CC[C@@H](C(=O)NC(c3ccccc3)c3ccccc3)N2C1=O`
Ans. 1.09 µM

Qu. Return reported GI50. Input compound: `COc1cc2c(cc1Nc1nc(N3CCc4ccccc43)c3cc[nH]c3n1)N(C(=O)CN(C)C)CC2`
Ans. 4.98 µM

Qu. Return reported GI50. Input compound: `CC1(C)N=C(N)N=C(N)N1c1ccc(CCC(=O)Nc2ccc(S(=O)(=O)F)cc2)cc1`
Ans. 2.19 µM

Qu. Return reported GI50. Input compound: `c1ccc(-c2[nH]ncc2-c2ccnc(-c3ccc(OCCn4ccnc4)cc3)c2)nc1`
Ans. > 25 µM

Qu. Return reported GI50. Input compound: `Cc1ccc(O)cc1Nc1ccnc2ccc(S(C)(=O)=O)cc12`
Ans. 5.97 µM

Qu. Return reported GI50. Input compound: `N#CC1(c2ccc(NC(=O)c3cccnc3NCc3ccncc3)cc2)CCCC1`
Ans. 12.8 µM

Qu. Return reported GI50. Input compound: `CSC1=Nc2c(c(C)c(C)n2COC(CO)CO)C2=NC(=O)CN12`
Ans. > 100 µM

Qu. Return reported GI50. Input compound: CN(C)CCCC1(c2ccc(F)cc2)OCc2cc(-c3cccc4[nH]ccc34)ccc21 (stereo not given)
Ans. 1.83 µM

Qu. Return reported GI50. Input compound: `CCN(CC)CCCNc1ccc(C)c2sc3ccccc3c(=O)c12`
Ans. 1.75 µM

Qu. Return reported GI50. Input compound: `COc1cc2c(N3CCN(C(=O)Nc4ccc(OC(C)C)cc4)CC3)ncnc2cc1OCCCN1CCCCC1`
Ans. 14.6 µM

Qu. Return reported GI50. Input compound: `CCCCCOc1ccc(/C=N/Nc2cc(C)nc3ccc(Cl)cc23)cc1`
Ans. 1.78 µM

Qu. Return reported GI50. Input compound: `O=C1NN(C2=NNC3(C(=O)N2)c2ccccc2-c2ccccc23)C(c2ccccc2)=N/C1=C/c1ccc(Cl)cc1`
Ans. 34.9 µg/mL

Qu. Return reported GI50. Input compound: `Cn1c([N+](=O)[O-])cnc1C=C1C(=O)c2ccccc2C1=O`
Ans. 4.9 µM

Qu. Return reported GI50. Input compound: `CCCCCCCCCCCCCCCCCCOc1ccccc1CC(=O)NCC[N+]1(C)CCOCC1`
Ans. 3.03 µM

###

# Tested on: T-47D breast
# Assay info: NCI tumour cell line growth inhibition, 48 h
Assignment: determine reported GI50 for the given compounds.

Qu. Return reported GI50. Input compound: `CNCc1cccc2c1OCCOCCOCCN(C)S(=O)(=O)c1ccc(cc1)-c1cnc(N)c(n1)C(=O)N2`
Ans. 2.25 µM

Qu. Return reported GI50. Input compound: `O=C(NCCNCCO)c1ccc2c(c1)oc1cc3ccccc3c(=O)n12`
Ans. 24.7 µM

Qu. Return reported GI50. Input compound: `Cn1c([N+](=O)[O-])cnc1C=C1C(=O)c2ccccc2C1=O`
Ans. 11.4 µM

Qu. Return reported GI50. Input compound: `N#Cc1nc2c(S(=O)(=O)c3ccc(Cl)cc3)c(N)n(Nc3cccc(Cl)c3)c2nc1C#N`
Ans. 0.0258 µM

Qu. Return reported GI50. Input compound: `O=C1C=C[C@H](O)[C@@]2(CO)O[C@@H]12`
Ans. 8.16 µM

The measured values listed here are drawn from PubChem BioAssay (NCI).
